System: Mus musculus
test.name: Toxicity in mouse infected with Trypanosoma brucei rhodesiense at 50 mg/kg, ip measured after day 3
Assay type: organism-based
Set-up: dose 50 mg/kg, route intraperitoneal
stated.conditions: in vivo
observable: Activity

> print(dat)
                                item.smiles   system.name  observable     result
1  CS(=O)(=O)O.O=C(Nc1ccc(C2=NCCN2)cc1)c1ccc(NC(=O)c2ccc(C3=NCCN3)cc2)cc1  Mus musculus    Activity  Non-toxic
2  CS(=O)(=O)O.O=C(Nc1ccc(NC(=O)c2ccc(C3=NCCN3)cc2)cc1)c1ccc(C2=NCCN2)cc1  Mus musculus    Activity  Non-toxic
3  CS(=O)(=O)O.O=C(Nc1ccc(C2=NCCN2)cc1)c1ccc(-c2ccc(C(=O)Nc3ccc(C4=NCCN4)cc3)cc2)cc1  Mus musculus    Activity  Non-toxic
4  CS(=O)(=O)O.O=C(Nc1ccc(C2=NCCN2)cc1)c1ccc(C2=NCCN2)cc1  Mus musculus    Activity  Non-toxic
5  CS(=O)(=O)O.O=C(Nc1cccc(C(=O)Nc2ccc(C3=NCCN3)cc2)c1)c1ccc(C2=NCCN2)cc1  Mus musculus    Activity  Non-toxic
6  CS(=O)(=O)O.O=C(NCc1ccc(C2=NCCN2)cc1)c1ccc(-c2cc3ccc(C4=NCCN4)cc3[nH]2)cc1  Mus musculus    Activity      Toxic

---

System: L6
test.name: Cytotoxicity against rat L6 cells assessed as cell viability after 70 hrs by MTT assay
Assay type: cell-based
stated.conditions: L6, 70 h
pIC50: −log10 of the molar value.
# pIC50 per record follows
observable: pIC50

> print(dat)
                                    compound  system.name  readout.relation  measured.number
 1  Nc1nc(N)nc(Nc2ccc([As]3SCC(CO)S3)cc2)n1 (stereo unspecified)           L6                 =             4.72
 2  CS(=O)(=O)O.O=C(Nc1ccc(C2=NCCN2)cc1)c1ccc(C(=O)Nc2ccc(C3=NCCN3)cc2)cc1           L6                 =             3.96
 3  O=C(NCc1ccccc1)c1ccc(-c2cc3ccc(C4=NCCN4)cc3[nH]2)cc1           L6                 =             3.96
 4  O=C(Nc1ccc(C2=NCCN2)cc1)c1ccc(-c2cc3ccc(C4=NCCN4)cc3[nH]2)cc1           L6                 =             4.72
 5  CS(=O)(=O)O.O=C(Nc1ccc(C2=NCCN2)cc1)c1ccc(C2=NCCN2)cc1           L6                 =             4.17
 6  N=C(N)c1ccc(OCCCCCOc2ccc(C(=N)N)cc2)cc1 [PENTAMIDINE ISETHIONATE]           L6                 =             5.29
 7  CS(=O)(=O)O.O=C(Nc1ccc(C2=NCCN2)cc1)c1ccc(NC(=O)c2ccc(C3=NCCN3)cc2)cc1           L6                 =             4.30
 8  O=C(NCc1ccc(C2=NCCN2)cc1)c1cccc(C(=O)NCc2ccc(C3=NCCN3)cc2)c1           L6                 <             3.82
 9  O=C(N[C@H]1CC[C@H](NC(=O)c2ccc(C3=NCCN3)cc2)CC1)c1ccc(C2=NCCN2)cc1           L6                 =             3.89
10  CS(=O)(=O)O.O=C(Nc1cccc(C(=O)Nc2ccc(C3=NCCN3)cc2)c1)c1ccc(C2=NCCN2)cc1           L6                 =             4.00
11  CS(=O)(=O)O.O=C(Nc1ccc(C2=NCCN2)cc1)c1cccc(C(=O)Nc2ccc(C3=NCCN3)cc2)c1           L6                 =             3.92
12  CS(=O)(=O)O.O=C(Nc1ccc(NC(=O)c2ccc(C3=NCCN3)cc2)cc1)c1ccc(C2=NCCN2)cc1           L6                 =             4.04
13  O=C(NCc1ccc(C2=NCCN2)cc1)c1ccc(C(=O)NCc2ccc(C3=NCCN3)cc2)cc1           L6                 =             4.04
14  O=C(NCc1ccncc1)c1ccc(-c2cc3ccc(C4=NCCN4)cc3[nH]2)cc1           L6                 =             4.05
15  CS(=O)(=O)O.O=C(Nc1ccc(C2=NCCN2)cc1)c1ccc(-c2ccc(C(=O)Nc3ccc(C4=NCCN4)cc3)cc2)cc1           L6                 <             3.82
16  CS(=O)(=O)O.O=C(NCc1ccc(C2=NCCN2)cc1)c1ccc(-c2cc3ccc(C4=NCCN4)cc3[nH]2)cc1           L6                 =             4.39

Numbers sourced from ChEMBL document CHEMBL3112401.
